// data source = ChEMBL document CHEMBL1140181

# System: OVCAR-5
# protocolSummary: Cytotoxicity against human OVCAR5 cells
# Type: functional
# appliedConditions: read-out: ED50 (the source's name)
Answer each item with its documented EC50.

Worked examples follow.
CCCCC[C@H](CCCCCCCCCC(=O)O)O[C@@H]1O[C@H](C)[C@@H](O)[C@H](O)[C@H]1O[C@@H]1O[C@H](CO)[C@@H](O)[C@H](O)[C@H]1O[C@@H]1O[C@@H](C)[C@H](O[C@@H]2O[C@H](C)[C@@H](OC(=O)C(C)C(C)O)[C@H](O)[C@H]2O)[C@@H](O)[C@H]1OC(=O)C(C)CC (stereo partly drawn)	> 5 µg/mL
CCCCCC1CCCCCCCCCC(=O)O[C@H]2[C@@H](OC(=O)CC)[C@H](O[C@H]3[C@H](O[C@H]4[C@H](O1)O[C@H](C)[C@H](O)[C@H]4O)O[C@H](CO)[C@H](O)[C@H]3O)O[C@H](C)[C@H]2O[C@H]1O[C@H](C)[C@H](O)[C@@H](O)[C@H]1O (stereo partly drawn)	> 5 µg/mL

Problem: Using the record for C/C=C(\C)C(=O)O[C@H]1[C@H](O)[C@@H](O)[C@H](O[C@@H]2[C@@H](O)[C@@H](OC(=O)C(C)CC)[C@H](O[C@H]3[C@H](O[C@H]4[C@H](O[C@H](CCCCC)CCCCCCCCCC(=O)O)O[C@H](C)[C@@H](O)[C@@H]4O)O[C@H](CO)[C@@H](O)[C@@H]3O)O[C@H]2C)O[C@@H]1C (stereo partly drawn) , report its EC50.
Solution: > 5 µg/mL
